biological target: Peptidyl-prolyl cis-trans isomerase FKBP5 (Homo sapiens, UniProt Q13451); assay: Binding affinity to human FKBP51 by competitive fluorescence polarization assay
Sequence (Q13451 whole entry): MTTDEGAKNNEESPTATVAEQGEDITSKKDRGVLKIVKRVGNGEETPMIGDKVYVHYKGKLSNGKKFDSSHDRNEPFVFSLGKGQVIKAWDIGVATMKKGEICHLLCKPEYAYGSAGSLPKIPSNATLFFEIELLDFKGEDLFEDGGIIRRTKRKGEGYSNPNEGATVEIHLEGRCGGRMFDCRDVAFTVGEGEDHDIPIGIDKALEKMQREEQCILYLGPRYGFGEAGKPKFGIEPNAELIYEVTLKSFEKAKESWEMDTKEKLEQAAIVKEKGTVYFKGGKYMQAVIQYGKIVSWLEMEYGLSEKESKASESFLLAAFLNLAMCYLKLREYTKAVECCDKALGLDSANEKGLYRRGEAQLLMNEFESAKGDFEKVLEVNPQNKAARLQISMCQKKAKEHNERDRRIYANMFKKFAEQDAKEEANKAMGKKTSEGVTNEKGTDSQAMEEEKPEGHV
Measured property: pKi
Scale for pKi: -log10 of concentration given in mol/L; no unit attached.

>  <Molecule>
CO[C@H]1C[C@@H]2CC[C@@H](C)[C@@](O)(O2)C(=O)C(=O)N2CCCC[C@H]2C(=O)O[C@H]([C@H](C)C[C@@H]2CC[C@@H](O)[C@H](OC)C2)CC(=O)[C@H](C)/C=C(\C)[C@@H](O)[C@@H](OC)C(=O)[C@H](C)C[C@H](C)/C=C/C=C/C=C/1C

>  <pKi>
8.52

$$$$

Value of measured pKi for the entry COc1ccc(OCCN2CCC3CCCC(C2=O)N3S(=O)(=O)c2cc(Cl)cc(Cl)c2)cc1OC (stereo not drawn) : 5.06
